System: Staphylococcus aureus
assay-remarks: Antimicrobial activity against methicillin-resistant Staphylococcus aureus isolate 12-13 after 18 hrs by agar dilution assay
Format: functional
assay-setup: isolate 12-13, 18 h
outcome-measure: MIC
Give the value; after it, write the unit.

structure-as-smiles | test-value
COc1ccc2c(c[n+]3c4c2ccc2c5c(cc(c24)CC3)OCO5)c1NC(=O)c1csnn1.[Cl-] | 4 µg/mL

Give its MIC value. Item: `COc1ccc(C(=O)COc2c(OC)ccc3c2c[n+]2c4c3ccc3c5c(cc(c34)CC2)OCO5)cc1C(F)(F)F.[Br-]`
4 µg/mL

Please look up its MIC: `COc1ccc2c(c[n+]3c4c2ccc2c5c(cc(c24)CC3)OCO5)c1OCC(=O)c1ccccc1OC(F)(F)F.[Br-]`
4 µg/mL

Quick one: MIC for `COc1ccc2c(c[n+]3c4c2ccc2c5c(cc(c24)CC3)OCO5)c1NCc1ccccc1.[Cl-]` ?
64 µg/mL

Which value of MIC has been reported for `COc1ccc2c(c[n+]3c4c2ccc2c5c(cc(c24)CC3)OCO5)c1NCc1ccco1.[Cl-]` in the records?
32 µg/mL

* * *

Test system: Staphylococcus hominis
assay-remarks: Antimicrobial activity against Staphylococcus hominis ATCC 35982 after 18 hrs by agar dilution assay
Format: functional
assay-setup: ATCC 35982, 18 h
# Yes = MIC below 20 µg/mL (exclusive); No = MIC at/above 20 µg/mL

compound | group
COc1ccc2c(c[n+]3c4c2ccc2c5c(cc(c24)CC3)OCO5)c1OCC(=O)C12CC3CC(CC(C3)C1)C2.[Br-] | Yes
COc1ccc2c(c[n+]3c4c2ccc2c5c(cc(c24)CC3)OCO5)c1OCC(=O)c1ccccc1.[Br-] | No
COc1ccc2c(c[n+]3c4c2ccc2c5c(cc(c24)CC3)OCO5)c1OCC(=O)C(C)(C)C.[Br-] | Yes
COc1ccc2c(c[n+]3c4c2ccc2c5c(cc(c24)CC3)OCO5)c1NC(=O)c1c(C)noc1C.[Cl-] | No
C[C@H]1COc2c(N3CCN(C)CC3)c(F)cc3c(=O)c(C(=O)O)cn1c23.C[C@H]1COc2c(N3CCN(C)CC3)c(F)cc3c(=O)c(C(=O)O)cn1c23.O [LEVOFLOXACIN] | Yes

Strictly below 20 µg/mL: is that where MIC of `COc1ccc2c(c[n+]3c4c2ccc2c5c(cc(c24)CC3)OCO5)c1NC(=O)c1ccccn1.[Cl-]` sits?
No

Threshold test, MIC < 20 µg/mL: `COc1ccc2c(c[n+]3c4c2ccc2c5c(cc(c24)CC3)OCO5)c1OCC(=O)c1cccc(OC(F)(F)F)c1.[Br-]`
No

* * *

Some molecules, each annotated with its measured log10 of MIC.
System: Staphylococcus aureus
assay-remarks: Antimicrobial activity against methicillin-sensitive Staphylococcus aureus isolate 13-19 after 18 hrs by agar dilution assay
Assay type: functional
assay-setup: isolate 13-19, 18 h
# log10 transformed; quantity=MIC; unit=µg/mL

Known results for molecules:
structure-as-smiles | log10 of MIC
COc1ccc2c(c[n+]3c4c2ccc2c5c(cc(c24)CC3)OCO5)c1O.[Cl-] | -0.30
COc1cccc(C(=O)COc2c(OC)ccc3c2c[n+]2c4c3ccc3c5c(cc(c34)CC2)OCO5)c1.[Br-] | 0.60
COc1ccc2c(c[n+]3c4c2ccc2c5c(cc(c24)CC3)OCO5)c1NC(=O)CC1CCCC1.[Cl-] | 0.90
COc1ccc2c(c[n+]3c4c2ccc2c5c(cc(c24)CC3)OCO5)c1OCC(=O)C12CC3CC(CC(C3)C1)C2.[Br-] | 0.60

GET /values?readout=log10 of MIC&item= `COc1ccc2c(c[n+]3c4c2ccc2c5c(cc(c24)CC3)OCO5)c1NCc1ccco1.[Cl-]`
1.20

May I ask what log10 of MIC has been recorded for `COc1ccc2c(c[n+]3c4c2ccc2c5c(cc(c24)CC3)OCO5)c1NCc1ccccc1.[Cl-]` ?
1.81

Requested field: log10 of MIC. Item: `COc1ccc2c(c[n+]3c4c2ccc2c5c(cc(c24)CC3)OCO5)c1N.[Cl-]`
0.90

Given the molecule `COc1ccc2c(c[n+]3c4c2ccc2c5c(cc(c24)CC3)OCO5)c1OCC(=O)C(C)(C)C.[Br-]` , what is its reported log10 of MIC?
1.51

What does the data say about its log10 of MIC? Entry: `COc1ccc2c(c[n+]3c4c2ccc2c5c(cc(c24)CC3)OCO5)c1NC(=O)c1csnn1.[Cl-]`
0.30

Consider the molecule `COc1ccc(C(=O)COc2c(OC)ccc3c2c[n+]2c4c3ccc3c5c(cc(c34)CC2)OCO5)cc1C(F)(F)F.[Br-]` and give its measured log10 of MIC.
0.60

Bench note: what log10 of MIC did `COc1ccc2c(c[n+]3c4c2ccc2c5c(cc(c24)CC3)OCO5)c1OCC(=O)c1ccc(F)cc1.[Br-]` show?
0.90

For the molecule shown here, `COc1ccc2c(c[n+]3c4c2ccc2c5c(cc(c24)CC3)OCO5)c1OCC(=O)c1ccccc1.[Br-]` , give the reported log10 of MIC.
1.20

* * *

System: Staphylococcus aureus
assay-remarks: Antimicrobial activity against methicillin-sensitive Staphylococcus aureus isolate 13-19 after 18 hrs by agar dilution assay
Assay type: functional
assay-setup: isolate 13-19, 18 h
outcome-measure: MIC (µg/mL)
Unit µg/mL implied. Number only.

structure-as-smiles | MIC, µg/mL
C[C@H]1COc2c(N3CCN(C)CC3)c(F)cc3c(=O)c(C(=O)O)cn1c23.C[C@H]1COc2c(N3CCN(C)CC3)c(F)cc3c(=O)c(C(=O)O)cn1c23.O | 0.5
COc1ccc2c(c[n+]3c4c2ccc2c5c(cc(c24)CC3)OCO5)c1NC(=O)c1cc(C)n(C)n1.[Cl-] | 8
COc1ccc2c(c[n+]3c4c2ccc2c5c(cc(c24)CC3)OCO5)c1OCC(=O)c1cccc(OC(F)(F)F)c1.[Br-] | 16

Requested field: MIC. Item: `COc1ccc2c(c[n+]3c4c2ccc2c5c(cc(c24)CC3)OCO5)c1OCC(=O)c1ccc(C)cc1.[Br-]`
4

So what does the record say about MIC for `COc1ccc2c(c[n+]3c4c2ccc2c5c(cc(c24)CC3)OCO5)c1OCC(=O)c1ccccc1OC(F)(F)F.[Br-]` ?
8

I am curious: what MIC value has been reported for `COc1ccc2c(c[n+]3c4c2ccc2c5c(cc(c24)CC3)OCO5)c1OC(C)=O.[Cl-]` ?
8

* * *

Test system: Staphylococcus aureus
assay-remarks: Antimicrobial activity against vancomycin-intermediate Staphylococcus aureus ATCC 700698 after 18 hrs by agar dilution assay
Format: functional
assay-setup: ATCC 700698, 18 h
outcome-measure: MIC

structure-as-smiles | MIC
COc1ccc2c(c[n+]3c4c2ccc2c5c(cc(c24)CC3)OCO5)c1OCC(=O)c1cccc(OC(F)(F)F)c1.[Br-] | > 64 µg/mL
COc1ccc2c(c[n+]3c4c2ccc2c5c(cc(c24)CC3)OCO5)c1OCC(=O)c1ccc(C)cc1.[Br-] | > 64 µg/mL
COc1ccc2c(c[n+]3c4c2ccc2c5c(cc(c24)CC3)OCO5)c1NC(=O)C12CC3CC(CC(C3)C1)C2.[Cl-] | > 64 µg/mL

What does the record list as MIC for `COc1ccc2c(c[n+]3c4c2ccc2c5c(cc(c24)CC3)OCO5)c1OCC(=O)C(C)(C)C.[Br-]` ?
> 64 µg/mL

Reported MIC, compound `COc1ccc2c(c[n+]3c4c2ccc2c5c(cc(c24)CC3)OCO5)c1N.[Cl-]` : ____
64 µg/mL

I am curious: what MIC value has been reported for `C[C@H]1COc2c(N3CCN(C)CC3)c(F)cc3c(=O)c(C(=O)O)cn1c23.C[C@H]1COc2c(N3CCN(C)CC3)c(F)cc3c(=O)c(C(=O)O)cn1c23.O` ?
32 µg/mL

Look up MIC: `COc1ccc2c(c[n+]3c4c2ccc2c5c(cc(c24)CC3)OCO5)c1NC(=O)c1ccccn1.[Cl-]`
> 64 µg/mL

* * *

assay-remarks: Stability in Sprague-Dawley rat blood assessed as parent compound remaining at […] after 420 mins by LC-MS/MS analysis
Assay type: ADME, tissue-based
assay-setup: read-out: Stability
Item-by-item account of remaining at 7 h
Please state the value followed by its unit.

structure-as-smiles | test-value
COc1ccc2c(c[n+]3c4c2ccc2c5c(cc(c24)CC3)OCO5)c1NC(=O)c1csnn1.[Cl-] | 57.2%

remaining at 7 h for `COc1ccc2c(c[n+]3c4c2ccc2c5c(cc(c24)CC3)OCO5)c1OCC(=O)C12CC3CC(CC(C3)C1)C2.[Br-]` ?
58%

* * *

System: Staphylococcus aureus
assay-remarks: Antimicrobial activity against methicillin-resistant Staphylococcus aureus isolate 12-16 after 18 hrs by agar dilution assay
Format: functional
assay-setup: isolate 12-16, 18 h
outcome-measure: MIC (µg/mL)
Give the value, in units of µg/mL, as a plain number.

Illustrative cases are given below, each with its answer.
structure-as-smiles | target-system | MIC / µg/mL
COc1ccc2c(c[n+]3c4c2ccc2c5c(cc(c24)CC3)OCO5)c1NC(=O)c1cc(C)n(C)n1.[Cl-] | Staphylococcus aureus | 16
COc1ccc2c(c[n+]3c4c2ccc2c5c(cc(c24)CC3)OCO5)c1OCC(=O)c1ccccc1OC(F)(F)F.[Br-] | Staphylococcus aureus | 4
COc1ccc2c(c[n+]3c4c2ccc2c5c(cc(c24)CC3)OCO5)c1OC(C)=O.[Cl-] | Staphylococcus aureus | 2

# query: MIC of entry `COc1ccc2c(c[n+]3c4c2ccc2c5c(cc(c24)CC3)OCO5)c1OCC(=O)c1ccccc1.[Br-]`
32

# get_value(readout='MIC', item= `COc1ccc(C(=O)COc2c(OC)ccc3c2c[n+]2c4c3ccc3c5c(cc(c34)CC2)OCO5)cc1C(F)(F)F.[Br-]` )
8

Recorded MIC for `COc1ccc2c(c[n+]3c4c2ccc2c5c(cc(c24)CC3)OCO5)c1NCc1ccccc1.[Cl-]` , please?
64
